Data provenance is ChEMBL document CHEMBL5608173.

Test system: Isocitrate dehydrogenase [NADP] cytoplasmic (Homo sapiens), O75874 [R132H]
Sequence (O75874 whole entry R132H): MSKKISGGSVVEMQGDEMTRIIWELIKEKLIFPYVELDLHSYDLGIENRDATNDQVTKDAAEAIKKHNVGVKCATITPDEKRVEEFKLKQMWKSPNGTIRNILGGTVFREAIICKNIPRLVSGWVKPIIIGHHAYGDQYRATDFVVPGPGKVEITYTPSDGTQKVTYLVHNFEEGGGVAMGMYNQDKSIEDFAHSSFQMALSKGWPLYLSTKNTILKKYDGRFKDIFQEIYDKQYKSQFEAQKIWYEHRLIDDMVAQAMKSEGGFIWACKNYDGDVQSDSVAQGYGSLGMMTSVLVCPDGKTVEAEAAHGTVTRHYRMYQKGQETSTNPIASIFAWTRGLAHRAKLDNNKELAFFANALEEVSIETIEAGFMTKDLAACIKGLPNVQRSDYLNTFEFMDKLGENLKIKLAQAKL
Test: Inhibition of recombinant human IDH1 R132H mutant extracted from Escherichia coli BL21 (DE3) cells using alpha-ketoglutarate as substrate at 0.2 uM incubated for 60 mins in presence of NADPH by absorbance based assay relative to control
Attribute: inhibition

>>> valueobserved("COc1cc(O)c(-c2cc(-c3ccc(O)cc3)nc(-c3cccnc3)n2)cc1CC=C(C)C")
"17.7%"
>>> valueobserved("COc1cc(O)c(-c2cc(-c3ccc(O)cc3)nc(-c3nn(Cc4ccccc4F)c4ncccc34)n2)cc1CC=C(C)C")
"30.5%"
>>> valueobserved("CCCCc1nc(-c2ccc(O)cc2)cc(-c2cc(CC=C(C)C)c(OC)cc2O)n1")
"7.6%"

Here is the next item to consider.
Entry COc1cc(O)c(-c2cc(-c3ccc(O)cc3)nc(-c3ccccc3)n2)cc1CC=C(C)C , inhibition reported as 27%
